In this section, each of the binders is paired with its reported Fold Increase in Lag Time; nucleation assay; 100 mole %.
- Assayed system: natural β-amyloid peptide β-AP1-40 (human)
- Sequence (peptide, as listed by the source): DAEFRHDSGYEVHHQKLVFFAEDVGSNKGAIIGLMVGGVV
- Protocol: cell-based or functional assay
Ends that are not written are not given here. * marks the point of attachment. Cholyl = C[C@H](CCC(=O)*)[C@H]1CC[C@H]2[C@@H]3[C@H](O)C[C@@H]4C[C@H](O)CC[C@]4(C)[C@H]3C[C@H](O)[C@]12C; iminobiotinyl = N=C1N[C@H]2[C@H](CS[C@H]2CCCCC(=O)*)N1; FICO = 5-(and 6-)-carboxyfluoresceinyl; NANA = N-acetyl neuraminyl

Asked: Please report Fold Increase in Lag Time; nucleation assay; 100 mole % for the following binder: {NANA}-HDSGYEVHHQKLVFF [NANA-Aβ6-20]
Given back: 1.3 fold

Asked: Please report Fold Increase in Lag Time; nucleation assay; 100 mole % for the following binder: Cholyl-EVHHQKLVFFAEDVG [cholyl-Aβ11-25]
Given back: 1.5 fold

Asked: Please report Fold Increase in Lag Time; nucleation assay; 100 mole % for the following binder: Cholyl-DAEFRHDSGYEVHHQ [cholyl-Aβ1-15]
Given back: > 4.5 fold

Asked: Please report Fold Increase in Lag Time; nucleation assay; 100 mole % for the following binder: {FICO}-AEDVGSNKGAIIGLM [FICO-Aβ21-35]
Given back: 1.2 fold

Asked: Please report Fold Increase in Lag Time; nucleation assay; 100 mole % for the following binder: iminobiotinyl-DAEFRHDSGYEVHHQ [iminobiotinyl-Aβ1-15]
Given back: 1.2 fold

Now for a further binder.
Asked: Please report Fold Increase in Lag Time; nucleation assay; 100 mole % for the following binder: {NANA}-SNKGAIIGLMVGGVV [NANA-Aβ26-40]
Given back: 1.3 fold
